target.entity: Human IP6K1 (Homo sapiens, UniProt Q92551)
Construct: GST (N, cleaved yes); made in house; host or cells: C43 E. coli, pGEX-6P-2
Sequence (Q92551 whole entry): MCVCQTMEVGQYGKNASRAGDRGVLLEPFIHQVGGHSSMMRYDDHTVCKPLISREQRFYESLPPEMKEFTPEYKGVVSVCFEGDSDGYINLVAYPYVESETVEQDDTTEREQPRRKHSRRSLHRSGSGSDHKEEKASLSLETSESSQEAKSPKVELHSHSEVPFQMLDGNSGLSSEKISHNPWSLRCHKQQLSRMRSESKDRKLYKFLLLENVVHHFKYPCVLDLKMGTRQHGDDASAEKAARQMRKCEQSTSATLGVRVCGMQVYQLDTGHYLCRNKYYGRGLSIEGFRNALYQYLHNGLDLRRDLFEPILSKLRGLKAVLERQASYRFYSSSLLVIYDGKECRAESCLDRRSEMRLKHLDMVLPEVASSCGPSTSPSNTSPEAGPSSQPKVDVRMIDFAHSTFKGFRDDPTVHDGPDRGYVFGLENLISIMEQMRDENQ
protocol.details: IP6K1 high-throughput screen of the Sigma LOPAC (ADP-Glo Max, single point);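 note: final compound concentration 10µM in 5% DMSO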
Type: biochemical
reported.conditions: LOPAC single-point screen, Z-score against plate average and StDev
This listing pairs compounds with measured Z-score.
# answer = number (no unit)

Here's what some known entries look like.
INSERT INTO results (compound, reported) VALUES
  ('CC(C)[C@H](CO)Nc1nc(Nc2cccc(Cl)c2)c2ncn(C(C)C)c2n1', -0.04344),
  ('Cl.NCCCCNS(=O)(=O)c1ccc2c(Cl)cccc2c1', 0.286);

Q: Given the entry "C[C@H]1C[C@H]2[C@@H]3CCC4=CC(=O)C=C[C@]4(C)[C@@]3(F)[C@@H](O)C[C@]2(C)[C@@]1(O)C(=O)CO" , report its measured Z-score.
Result: 0.1673

Q: Which Z-score is listed for CC[N+](CC)(CC)CCOc1cccc(OCC[N+](CC)(CC)CC)c1OCC[N+](CC)(CC)CC [Gallamine triethiodide] ?
Result: 0.2975

Q: Which Z-score is reported for this compound? Cc1cc(N)c2ccccc2[n+]1CCCCCCCCCC[n+]1c(C)cc(N)c2ccccc21 [Dequalinium dichloride]
Result: 0.1093

Q: For the compound "Cl.NCCc1ccc(S(=O)(=O)F)cc1" , what Z-score is on record?
Result: 0.177

Q: Please give the measured Z-score for this compound: "CC(C)(C)c1cc(/C=C(\C#N)C(N)=S)cc(C(C)(C)C)c1O"
Result: 0.01189

Q: What measured Z-score goes with O=c1[nH]c2ccccc2n1C1CCN(CCCC(c2ccc(F)cc2)c2ccc(F)cc2)CC1 [Pimozide] ?
Result: -0.07855

====

Some compounds, each annotated with its measured Z-score.
target.entity: Human IP6K1 (Homo sapiens, UniProt Q92551)
Construct: GST (N, cleaved yes); made in house; host or cells: C43 E. coli, pGEX-6P-2
protocol.details: IP6K1 high-throughput screen of the Sigma LOPAC (ADP-Glo Max, single point);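 note: final compound concentration 10µM in 5% DMSO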
Type: biochemical
reported.conditions: LOPAC single-point screen; Z-score relative to plate average and StDev
Structures can show the parent of a compound that is named as a salt.
Give your answer as a number; write no unit.

INSERT INTO results (compound, target_entity, reported) VALUES
  ('CNC(=O)[C@H]1O[C@@H](n2cnc3c(NCc4cccc(I)c4)nc(Cl)nc32)[C@H](O)[C@@H]1O', 'Human IP6K1 (Homo sapiens, UniProt Q92551)', -1.039),
  ('Cn1cnc2c1c(=O)[nH]c(=O)n2C', 'Human IP6K1 (Homo sapiens, UniProt Q92551)', -0.6028),
  ('O=C1C=CC(=O)C=C1', 'Human IP6K1 (Homo sapiens, UniProt Q92551)', -1.098),
  ('Cc1ccccc1/C=C/C1=NCCN1 [Metrazoline oxalate]', 'Human IP6K1 (Homo sapiens, UniProt Q92551)', -0.479),
  ('O=S(=O)(NCCNC/C=C/c1ccc(Br)cc1)c1cccc2cnccc12', 'Human IP6K1 (Homo sapiens, UniProt Q92551)', -0.7752);

Okay, now this compound:
Q: Record request: Z-score value, item CNCCCN1c2ccccc2CCc2ccccc21 [Desipramine hydrochloride]
Result: -1.061

====

target.entity: Human IP6K1 (Homo sapiens, UniProt Q92551)
Construct: GST (N, cleaved yes); made in house; host or cells: C43 E. coli, pGEX-6P-2
protocol.details: IP6K1 high-throughput screen of the Sigma LOPAC (ADP-Glo Max, single point);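 note: final compound concentration 10µM in 5% DMSO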
Format: biochemical
reported.conditions: LOPAC single-point screen, ADP-Glo Max raw signal per well
property: Raw Signal
Just the number, please, no unit attached.

See these solved cases before continuing.
INSERT INTO results (compound, target_entity, property, reported) VALUES
  ('Nc1ncnc2c1ncn2[C@@H]1O[C@H](COP(=O)(O)OP(=O)(O)OP(=O)(O)OP(=O)(O)OC[C@H]2O[C@@H](n3cnc4c(N)ncnc43)[C@H](O)[C@@H]2O)[C@@H](O)[C@H]1O', 'Human IP6K1 (Homo sapiens, UniProt Q92551)', 'Raw Signal', 55437),
  ('CCCNC(=O)NS(=O)(=O)c1ccc(Cl)cc1 [Chlorpropamide]', 'Human IP6K1 (Homo sapiens, UniProt Q92551)', 'Raw Signal', 58549);

In the following, a different compound is considered.
Q: Quick check: Raw Signal of COc1cc([C@@H]2c3cc4c(cc3[C@@H](O[C@@H]3O[C@@H]5CO[C@@H](C)O[C@H]5[C@H](O)[C@H]3O)[C@H]3COC(=O)[C@H]23)OCO4)cc(OC)c1O [Etoposide] ?
Result: 53339

====

target.entity: Human IP6K1 (Homo sapiens, UniProt Q92551)
Construct: GST (N, cleaved yes); made in house; host or cells: C43 E. coli, pGEX-6P-2
protocol.details: IP6K1 high-throughput screen of the Sigma LOPAC (ADP-Glo Max, single point);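 note: final compound concentration 10µM in 5% DMSO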
Assay type: biochemical
reported.conditions: LOPAC single-point screen, ADP-Glo Max raw signal per well
Counter-ions that a name gives are not always drawn.
Below, each entry is listed with its recorded Raw Signal.
Answer with a number only.

Recorded Raw Signal, per entry:
INSERT INTO results (molecule, reported) VALUES
  ('CC(=O)CCCCn1c(=O)c2c(ncn2C)n(C)c1=O [Pentoxifylline]', 53271),
  ('Cl.NNC(N)=O [Semicarbazide hydrochloride]', 55828),
  ('COc1cc(OC)cc(C(CNc2ncnc3c2ncn3[C@@H]2O[C@H](CO)[C@@H](O)[C@H]2O)c2ccccc2C)c1 (some centres unmarked) [DPMA]', 54367),
  ('Clc1ccc(C(c2ccccc2Cl)C(Cl)Cl)cc1 (centres unmarked)', 59387),
  ('C[C@@H](NC(=O)/C(C#N)=C/c1ccc(O)c(O)c1)c1ccccc1 [Tyrphostin AG 527]', 54153);

Q: Record request: Raw Signal value, item N=C(N)NC(=O)c1nc(Cl)c(N2CCCCCC2)nc1N [5-(N,N-hexamethylene)amiloride]
Result: 56870

Q: Request the reported Raw Signal associated with CC(=O)c1c(O)c(C)c(O)c(Cc2c(O)c3c(c(C(=O)/C=C/c4ccccc4)c2O)OC(C)(C)C=C3)c1O [Rottlerin]
Result: 55469

Q: # lookup: Raw Signal of CN(C)c1ccc(O)c2c1C[C@H]1C[C@H]3[C@H](N(C)C)C(O)=C(C(N)=O)C(=O)[C@@]3(O)C(O)=C1C2=O [Minocycline hydrochloride]
Result: 55658

====

Parameter: Raw Signal. Scope: all listed entries.
target.entity: Human IP6K1 (Homo sapiens, UniProt Q92551)
Construct: GST (N, cleaved yes); made in house; host or cells: C43 E. coli, pGEX-6P-2
protocol.details: IP6K1 high-throughput screen of the Sigma LOPAC (ADP-Glo Max, single point);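 note: final compound concentration 10µM in 5% DMSO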
Format: biochemical
reported.conditions: Sigma LOPAC single-point screen, ADP-Glo Max raw signal per well
Counter-ions that a name gives are not always drawn.

Consider the reported Raw Signal for these molecules:
INSERT INTO results (molecule, reported) VALUES
  ('CN1CCC(=C2c3ccccc3C=Cc3ccccc32)CC1 [Cyproheptadine hydrochloride]', 61620),
  ('COc1cc(CC(=O)O)ccc1O [4-Hydroxy-3-methoxyphenylacetic acid]', 58602),
  ('CS(=O)(=O)O.Cc1c(C(=O)c2cccc3ccccc23)c2cccc3c2n1[C@H](CN1CCOCC1)CO3 [(R)-(+)-WIN 55,212-2 mesylate]', 62593),
  ('C=CCN1CC[C@]23c4c5ccc(O)c4O[C@H]2/C(=N/NC(=O)c2ccccc2)CC[C@@]3(O)[C@H]1C5 [Naloxone benzoylhydrazone]', 57821);

Q: Which value of Raw Signal has been reported for "COC(=O)[C@@H](N)CCCN=C(N)N[N+](=O)[O-].Cl" in the records?
Result: 58464

Q: Fill blank: measured Raw Signal of the molecule "Nc1cc(=O)[nH]c(N)n1" is ____.
Result: 57244

Q: Look up Raw Signal for this molecule: CCCCNc1cc(C(=O)O)cc(S(N)(=O)=O)c1Oc1ccccc1 [Bumetanide]
Result: 62300

Q: Data request, read-out Raw Signal, for CN1CCN(c2nc3cc(C(F)(F)F)ccc3n3cccc23)CC1.O=C(O)/C=C\C(=O)O [CGS-12066A maleate]
Result: 58347

Q: What does the data say about its Raw Signal? Entry: CC1(C)NC(=O)N(c2ccc([N+](=O)[O-])c(C(F)(F)F)c2)C1=O [Nilutamide]
Result: 62066

Q: What does the record list as Raw Signal for "C[C@]12C=CC(=O)C=C1CC[C@H]1[C@@H]3C[C@@H](O)[C@](O)(C(=O)CO)[C@@]3(C)C[C@H](O)[C@@]12F" ?
Result: 60096

Q: Field request: Raw Signal | item: C[N+](C)(C)CC(=O)O [Betaine hydrochloride]
Result: 62144

Q: Returns the measured Raw Signal for the input molecule. Input: Nc1ccc(N2C(=O)c3ccccc3C2=O)c(Cl)c1 [N-(4-Amino-2-chlorophenyl)phthalimide]
Result: 61206

Value source: paper PMC5706701
